- Test System: CD47 on CCRF-CEM cells (human, UniProt Q08722 19-323)
- Sequence (Q08722 19-323): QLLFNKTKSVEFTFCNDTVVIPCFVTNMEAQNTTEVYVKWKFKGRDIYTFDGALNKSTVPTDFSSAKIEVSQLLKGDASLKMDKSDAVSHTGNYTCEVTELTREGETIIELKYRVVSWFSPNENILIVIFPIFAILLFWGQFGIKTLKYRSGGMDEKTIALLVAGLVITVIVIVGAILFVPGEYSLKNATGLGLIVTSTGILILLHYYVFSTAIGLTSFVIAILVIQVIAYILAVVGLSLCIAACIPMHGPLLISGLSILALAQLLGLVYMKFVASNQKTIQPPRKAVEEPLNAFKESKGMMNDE
- Method Description: cell-based or functional assay
Metric Name: Phagocytosis EC50 (ug/mL), Donor 1 (µg/mL)
Your answer should be a plain number; it is taken to be in µg/mL.

Please give the documented Phagocytosis EC50 (ug/mL), Donor 1 of AbParental, parental anti-CD47 antibody (antibody, human IgG4 S228P, kappa, V domains shown, Parental anti-CD47 antibody, described in WO 2013/119714 A1; also called Parental LC-HC; parental antibody) VH: QMQLVQSGAEVKKTGSSVKVSCKASGFNIKDYYLHWVRQAPGQALEWMGWIDPDQGDTEYAQKFQDRVTITRDRSMSTAYMELSSLRSEDTAMYYCNAAYGSSSYPMDYWGQGTTVTVSS VL: NIQMTQSPSAMSASVGDRVTITCKASQDIHRYLSWFQQKPGKVPKHLIYRANRLVSGVPSRFSGSGSGTEFTLTISSLQPEDFATYYCLQYDEFPYTFGGGTKVEIKR
0.38

***
Please give the documented Phagocytosis EC50 (ug/mL), Donor 1 of Ab480/Ab1122 (HC Ab480, LC Ab1122) anti-CD47 antibody (antibody, V domains shown, FR and CDR L2 variant of AbParental; The label order is HC/LC although the head says 'LC/HC'; r445 is used) VH: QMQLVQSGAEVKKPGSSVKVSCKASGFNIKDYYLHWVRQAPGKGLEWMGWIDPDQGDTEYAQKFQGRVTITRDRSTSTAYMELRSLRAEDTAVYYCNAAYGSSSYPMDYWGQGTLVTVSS VL: NIQMTQSPSSLSASVGDRVTITCRASQDIHRYLSWFQQKPGKVPKHLIYRYERFVDGVPSRFSGSGSGTEFTLTISSLQPEDFATYYCLQYDEFPYTFGGGTKVEIK
1.1

Please give the documented Phagocytosis EC50 (ug/mL), Donor 1 of Ab356/Ab1120 (HC Ab356, LC Ab1120) anti-CD47 antibody (antibody, V domains shown, FR and CDR L2 variant of AbParental) VH: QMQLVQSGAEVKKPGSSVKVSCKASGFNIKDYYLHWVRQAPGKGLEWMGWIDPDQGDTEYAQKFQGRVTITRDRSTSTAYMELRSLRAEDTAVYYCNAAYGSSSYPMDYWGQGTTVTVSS VL: NIQMTQSPSSLSASVGDRVTITCRASQDIHRYLSWFQQKPGKVPKHLIYRYVRFVDGVPSRFSGSGSGTEFTLTISSLQPEDFATYYCLQYDEFPYTFGGGTKVEIK
0.68
